Listing of recorded viability at 48 h, 10 µM by entry.
Test: Cytotoxicity against human MCF7 cells assessed as cell survival at 10 uM after 48 hrs by MTT assay relative to control
Type: cell-based
Conditions: read-out: Survival
Numeric only. Scale: %

Solved entries:
C=C1[C@H](OC(=O)C(C)C)[C@@H](OC(C)=O)[C@@H](OC(C)=O)C(C)(C)/C=C/[C@H](C)C(=O)[C@@]2(O)C[C@@](C)(OC(C)=O)[C@H](OC(C)=O)[C@@H]2[C@H]1OC(=O)c1ccccc1    92.4
C=C1[C@H](OC(=O)C(C)C)[C@@H](OC(C)=O)[C@@H](OC(C)=O)C(C)(C)/C=C/[C@H](C)[C@H](OC(=O)c2ccccc2)[C@@]2(O)C[C@@](C)(OC(C)=O)[C@H](OC(C)=O)[C@@H]2[C@H]1OC(=O)c1ccccc1    93.2

**Q:** Return the recorded viability at 48 h, 10 µM value; entry: C=C1[C@H](OC(=O)C(C)C)[C@@H](OC(C)=O)[C@@H](OC(C)=O)C(C)(C)/C=C/[C@H](C)[C@H](O)[C@@]2(O)C[C@@](C)(OC(=O)C(C)C)[C@H](OC(C)=O)[C@@H]2[C@H]1OC(=O)c1ccccc1
**A:** 88

**Q:** Return the recorded viability at 48 h, 10 µM value; entry: C=C1[C@@H](OC(C)=O)[C@@H]2[C@H](OC(=O)c3ccccc3)[C@](C)(OC(=O)C(C)C)C[C@]2(OC(C)=O)C(=O)[C@H](C)/C=C/C(C)(C)[C@H](OC(C)=O)[C@H](OC(C)=O)[C@H]1OC(=O)C(C)C
**A:** 92.3

====

Assay: Inhibition of P-gp in human MCF7/ADR cells assessed as potentiation of doxorubicin-induced cytotoxicity after 48 hrs by MTT assay
Format: cell-based
Details: NCI/ADR-RES
Listing of recorded pEC50 by entry.
pEC50 (log units): -log10 of the concentration in mol/L.

Solved entries:
CC(=O)O[C@H]1[C@@H](OC(C)=O)C(C)(C)/C=C/[C@H](C)[C@H](OC(C)=O)[C@@]2(O)C[C@@](C)(OC(C)=O)[C@H](O)[C@@H]2[C@H]2OC(=O)CC[C@@]2(OC(=O)c2ccccc2)[C@@H]1OC(=O)C(C)C    6.90
C=C1[C@H](OC(=O)C(C)C)[C@@H](OC(C)=O)[C@@H](OC(C)=O)C(C)(C)/C=C/[C@H](C)[C@H](OC(=O)c2ccccc2)[C@@]2(O)C[C@@](C)(OC(C)=O)[C@H](OC(C)=O)[C@@H]2[C@H]1OC(=O)CC    6.75
C=C1[C@H](OC(=O)C(C)C)[C@@H](OC(C)=O)[C@@H](OC(C)=O)C(C)(C)/C=C/[C@H](C)[C@H](O)[C@@]2(O)C[C@@](C)(OC(=O)C(C)C)[C@H](OC(C)=O)[C@@H]2[C@H]1OC(=O)c1ccccc1    6.90

**Q:** Return the recorded pEC50 value; entry: CC(=O)O[C@H]1[C@@H](OC(C)=O)C(C)(C)/C=C/[C@H](C)[C@@H](OC(C)=O)[C@@]2(O)C[C@@](C)(OC(C)=O)[C@@H]3OC(=O)CC[C@@](O)([C@@H]1OC(=O)C(C)C)[C@H](OC(=O)c1ccccc1)[C@@H]32
**A:** 6.84

====

Test: Cytotoxicity against human MCF7 cells assessed as cell survival at 10 uM after 48 hrs by MTT assay relative to control
Assay type: cell-based
Settings: read-out: Survival
quantityName: viability at 48 h, 10 µM (%)
Numeric only. Scale: %

CC(=O)O[C@H]1[C@@H](OC(C)=O)C(C)(C)/C=C/[C@H](C)[C@@H](OC(C)=O)[C@@]2(O)C[C@@](C)(OC(C)=O)[C@@H]3OC(=O)CC[C@@](O)([C@@H]1OC(=O)C(C)C)[C@H](OC(=O)c1ccccc1)[C@@H]32    93.2
C=C1[C@H](OC(=O)C(C)C)[C@@H](OC(C)=O)[C@@H](OC(C)=O)C(C)(C)/C=C/[C@H](C)[C@H](OC(=O)c2ccccc2)[C@@]2(O)C[C@@](C)(OC(C)=O)[C@H](OC(C)=O)[C@@H]2[C@H]1OC(=O)CC    93.3
COc1ccc(CCN(C)CCCC(C#N)(c2ccc(OC)c(OC)c2)C(C)C)cc1OC (stereo not given)    83.4
C=C1[C@H](OC(=O)C(C)C)[C@@H](OC(C)=O)[C@@H](OC(C)=O)C(C)(C)/C=C/[C@H](C)[C@H](OC(C)=O)[C@@]2(O)C[C@@](C)(OC(C)=O)[C@H](OC(C)=O)[C@@H]2[C@H]1OC(=O)c1ccccc1    94.6

Next molecule, viability at 48 h, 10 µM to be filled in.
**Q:** Return the recorded viability at 48 h, 10 µM value; entry: C=C1[C@H](OC(=O)C(C)C)[C@@H](OC(C)=O)[C@@H](OC(C)=O)C(C)(C)/C=C/[C@H](C)[C@H](OC(=O)c2ccccc2)[C@@]2(O)C[C@@](C)(OC(C)=O)[C@H](OC(C)=O)[C@@H]2[C@H]1OC(=O)C(C)CC (stereo not given in full)
**A:** 91.4

====

System: NCI/ADR-RES
Test: Cytotoxicity against human MCF7/ADR cells after 48 hrs by MTT assay
Type: cell-based
quantityName: pIC50
pIC50 (log units): -log10 of the concentration in mol/L.

CC(=O)O[C@H]1[C@@H](OC(C)=O)C(C)(C)/C=C/[C@H](C)[C@@H](OC(C)=O)[C@@]2(O)C[C@@](C)(OC(C)=O)[C@@H]3OC(=O)CC[C@@](O)([C@@H]1OC(=O)C(C)C)[C@H](OC(=O)c1ccccc1)[C@@H]32    4.03

**Q:** Return the recorded pIC50 value; entry: C=C1CCC(=O)C(C)(C)/C=C/[C@H](C)C(=O)[C@@]2(OC(C)=O)C[C@H](C)[C@H](O)[C@@H]2[C@H]1OC(=O)c1ccccc1
**A:** 4.04

====

Listing of recorded fold change (FC) by entry.
Species on record: Homo sapiens
Experiment: Inhibition of P-gp in human MCF7/ADR cells assessed as potentiation of doxorubicin-induced cytotoxicity at 10 uM after 48 hrs by MTT assay relative to control
Format: cell-based
I only need the number, thanks.

C=C1[C@H](OC(=O)C(C)C)[C@@H](OC(C)=O)[C@@H](OC(C)=O)C(C)(C)/C=C/[C@H](C)[C@H](O)[C@@]2(O)C[C@@](C)(OC(=O)C(C)C)[C@H](OC(C)=O)[C@@H]2[C@H]1OC(=O)c1ccccc1    20.6
C=C1[C@H](OC(C)=O)[C@H]2[C@@H](OC(C)=O)[C@@H](C)C[C@]2(OC(C)=O)C(=O)[C@@H](C)/C=C/C(C)(C)C(=O)[C@H](OC(C)=O)[C@H]1OC(=O)CC    6.65

**Q:** Return the recorded fold change (FC) value; entry: C=C1[C@H](OC(C)=O)[C@H]2[C@@H](OC(C)=O)[C@@H](C)C[C@]2(OC(C)=O)C(=O)[C@@H](C)/C=C/C(C)(C)C(=O)[C@H](OC(C)=O)[C@H]1OC(=O)C(C)C
**A:** 9.99

====

Assay: Cytotoxicity against human MCF7 cells assessed as cell survival at 10 uM after 48 hrs by MTT assay relative to control
Assay type: cell-based
Conditions: read-out: Survival
Listing of recorded viability at 48 h, 10 µM by entry.
Numeric only. Scale: %

C=C1[C@H](OC(C)=O)[C@H]2[C@@H](OC(C)=O)[C@@H](C)C[C@]2(OC(C)=O)C(=O)[C@@H](C)/C=C/C(C)(C)C(=O)[C@H](OC(C)=O)[C@H]1OC(=O)CC    85.6

Next compound, viability at 48 h, 10 µM to be filled in.
**Q:** Return the recorded viability at 48 h, 10 µM value; entry: CC(=O)O[C@H]1[C@@H](OC(C)=O)C(C)(C)[C@@H]2O[C@H]2[C@H](C)[C@H](OC(C)=O)[C@]2(O)[C@H]3[C@@H](OC(=O)c4ccccc4)[C@@](O)(CCC(=O)O[C@H]3[C@](C)(OC(C)=O)[C@H]2OC(C)=O)[C@@H]1OC(C)=O
**A:** 94.9

====

Assay: Inhibition of P-gp in human MCF7/ADR cells assessed as potentiation of doxorubicin-induced cytotoxicity after 48 hrs by MTT assay
Type: cell-based
Settings: NCI/ADR-RES
Listing of recorded EC50 by entry.
Numeric only. Scale: nM

Solved entries:
C=C1[C@@H](OC(C)=O)[C@@H]2[C@H](OC(=O)c3ccccc3)[C@](C)(OC(=O)C(C)C)C[C@]2(OC(C)=O)C(=O)[C@H](C)/C=C/C(C)(C)[C@H](OC(C)=O)[C@H](OC(C)=O)[C@H]1OC(=O)C(C)C    196
C=C1[C@H](OC(=O)CC)[C@@H](OC(C)=O)[C@@H](OC(C)=O)C(C)(C)/C=C/[C@H](C)[C@H](OC(=O)c2ccccc2)[C@@]2(O)C[C@@](C)(OC(C)=O)[C@H](OC(C)=O)[C@@H]2[C@H]1OC(=O)C(C)C    136
C=C1[C@H](OC(=O)C(C)C)[C@@H](OC(C)=O)[C@@H](OC(C)=O)C(C)(C)/C=C/[C@H](C)[C@H](OC(=O)c2ccccc2)[C@@]2(O)C[C@@](C)(OC(C)=O)[C@H](OC(C)=O)[C@@H]2[C@H]1OC(=O)C(C)CC (some centres undefined)    92.7

Next compound, EC50 to be filled in.
**Q:** Return the recorded EC50 value; entry: C=C1[C@H](OC(=O)C(C)C)[C@@H](OC(C)=O)[C@@H](OC(C)=O)C(C)(C)/C=C/[C@H](C)[C@H](OC(=O)c2ccccc2)[C@@]2(O)C[C@@](C)(OC(C)=O)[C@H](OC(C)=O)[C@@H]2[C@H]1OC(=O)c1ccccc1
**A:** 92.9
